Exercise: for every item that follows, state its recorded %Inh.
System: RPS6KA5(Kin.Dom.2-C-terminal);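 note: KINOMEscan kinase panel screen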
Conditions: concentration: 1 μM, replicates: in singlicate; n = 1
Reply with just the number (in %).

Data request: Fill blank: measured %Inh of the molecule O=C1Cc2cc(Nc3nc(NCc4cccc(S(=O)(=O)C(F)(F)F)c4)ncc3C(F)(F)F)ccc2N1 is ____.
Data returned: 0

Data request: Fill blank: measured %Inh of the molecule Nc1nccc(-c2c(-c3ccc(F)cc3)ncn2C2CCN(CC(F)(F)F)CC2)n1 [SB-236560] is ____.
Data returned: 0

Data request: Fill blank: measured %Inh of the molecule CC(C)(C)n1cnc2c(N)ncnc21 [SKF-97359] is ____.
Data returned: 0
